Target: Potassium voltage-gated channel subfamily KQT member 2 (Rattus norvegicus)
Assay: KCNQ2 potassium flux blockade – cell-based, FluxOR thallium flux, CRC set 3, selectivity assay for KCNK9 inhibitor project, SAR follow-up (AID 588798)
Settings: KCNQ2-expressing cells, FluxOR thallium flux fluorescence
result type: pIC50
When answering, recall that pIC50 equals minus log10 of the concentration in mol/L, and write that number alone.

Q. API: value(readout= pIC50, system= Potassium voltage-gated channel subfamily KQT member 2 (Rattus norvegicus), query= CC(C1CC2CCC1C2)n1c(SCc2ccccc2)nnc1-c1ccco1 (stereo unspecified) )
A. 4.74

----------
Biological target: Potassium voltage-gated channel subfamily KQT member 2 (Rattus norvegicus) (UniProt O88943)
Sequence (O88943 whole entry, looked up): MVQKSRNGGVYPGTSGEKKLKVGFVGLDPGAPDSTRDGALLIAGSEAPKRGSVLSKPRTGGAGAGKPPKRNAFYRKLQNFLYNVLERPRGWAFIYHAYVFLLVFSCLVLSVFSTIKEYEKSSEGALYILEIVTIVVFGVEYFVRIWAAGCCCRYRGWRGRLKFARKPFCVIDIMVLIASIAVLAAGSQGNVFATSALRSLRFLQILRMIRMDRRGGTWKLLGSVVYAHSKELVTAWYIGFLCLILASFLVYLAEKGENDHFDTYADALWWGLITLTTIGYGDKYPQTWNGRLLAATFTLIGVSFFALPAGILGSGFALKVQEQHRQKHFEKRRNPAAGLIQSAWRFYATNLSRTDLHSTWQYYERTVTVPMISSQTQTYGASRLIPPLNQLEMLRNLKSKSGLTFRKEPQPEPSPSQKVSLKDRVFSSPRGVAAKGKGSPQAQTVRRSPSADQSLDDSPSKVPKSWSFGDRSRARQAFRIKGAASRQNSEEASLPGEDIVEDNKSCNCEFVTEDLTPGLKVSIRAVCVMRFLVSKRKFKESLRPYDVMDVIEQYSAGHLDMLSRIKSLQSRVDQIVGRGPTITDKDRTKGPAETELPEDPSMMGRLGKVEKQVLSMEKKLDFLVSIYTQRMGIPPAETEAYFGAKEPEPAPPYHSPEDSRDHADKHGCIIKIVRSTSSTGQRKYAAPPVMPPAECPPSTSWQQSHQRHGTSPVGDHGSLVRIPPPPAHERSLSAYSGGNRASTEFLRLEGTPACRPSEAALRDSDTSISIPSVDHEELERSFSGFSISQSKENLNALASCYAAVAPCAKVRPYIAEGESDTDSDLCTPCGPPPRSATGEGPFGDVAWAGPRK
Assay: KCNQ2 potassium flux blockade – cell-based, FluxOR thallium flux, CRC set 3, selectivity assay for KCNK9 inhibitor project, SAR follow-up (AID 588798)
Conditions: KCNQ2-expressing cells, FluxOR thallium flux fluorescence; at 30 µM (top of the series)
The source made the active and inactive calls.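 How the source made its calls: active means peak inhibition of the KCNQ2 potassium channel above 30% at some tested dose, plus a fitted dose response curve; inactive means no inhibition at any dose, or no curve.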
result type: thallium flux ratio, lower = inhibition

These recorded examples may help you get a feel for the data.
CC(C1CC2CCC1C2)n1c(-c2cccc(F)c2)n[nH]c1=S (stereo not given) :: inactive
CC(C1CC2CCC1C2)n1c(SCC(=O)c2ccc(Cl)c(Cl)c2)nnc1-c1ccco1 (stereo not given) :: inactive
COc1cccc(-c2nnc(S(C)(=O)=O)n2C(C)C2CC3CCC2C3)c1 (stereo not given) :: inactive
CC(C1CC2CCC1C2)n1c(-c2cccn2C)n[nH]c1=S (stereo not given) :: inactive
COc1ccccc1C(=O)Nc1cc(NC(=O)c2ccccc2C(C)C)ccc1F :: inactive

Q. Which thallium flux ratio, lower = inhibition is listed for COc1ccc(C(=O)CSc2nnc(-c3ccco3)n2C(C)C2CC3CCC2C3)cc1OC (stereo not given) ?
A. inactive

Q. Which thallium flux ratio, lower = inhibition is listed for CC(C1CC2CCC1C2)n1c(SCC(=O)c2ccccc2)nnc1-c1ccco1 (stereo not given) ?
A. inactive

Q. Which thallium flux ratio, lower = inhibition is listed for CC(c1cccc2ccccc12)n1c(-c2ccco2)n[nH]c1=S (stereo not given) ?
A. inactive

Q. Which thallium flux ratio, lower = inhibition is listed for CC(C1CC2CCC1C2)n1c(SC(F)F)nnc1-c1ccco1 (stereo not given) ?
A. inactive

Q. Which thallium flux ratio, lower = inhibition is listed for CC(CC1CC2CCC1C2)n1c(-c2ccco2)n[nH]c1=S (stereo not given) ?
A. inactive
